biological target: ERα protein (HiBiT-tagged) in ESR1_HiBiT KI MCF7 cells (Homo sapiens); assay: Nano Glo HiBiT Lytic Degradation Assay; assay type: cell-based; conditions: 6 hours with compound, 14-point dose response 1:3, bell-shape curve fit, half-maximal effect of first Hill model, read-out: MCF7 ESR1 HiBiT - (DC50)
property.name: DC50 (nM)
Just the number in nM, nothing appended.

Input O=C1CC[C@H](N2Cc3cc(N4CCN(CC5CCN(c6ccc([C@@H]7c8ccc(O)cc8CC[C@@H]7c7ccc(O)cc7)cc6)CC5)CC4)ccc3C2=O)C(=O)N1 [Compound I-131] . Output DC50: 0.03

Input O=C1CC[C@H](N2Cc3cc(N4CCN(CC5CCN(c6ccc([C@@H]7c8ccc(O)cc8CC[C@@H]7C7CCCCC7)cc6)CC5)CC4)ccc3C2=O)C(=O)N1 [Compound I-6] . Output DC50: 2.24

Input Cn1nc(N2CCC(=O)NC2=O)c2ccc(N3CCN(CC4CCN(c5ccc([C@@H]6c7ccc(O)cc7C(F)(F)C[C@@H]6c6ccccc6)cc5)CC4)CC3)cc21 [Compound I-300] . Output DC50: 3300

Input C[C@@H](C1CC1)[C@H]1CC(F)(F)c2cc(O)ccc2[C@H]1c1ccc(N2CCC(CN3CCN(c4ccc5c(c4)CN([C@H]4CCC(=O)NC4=O)C5=O)CC3)CC2)cc1 (single isomer, unassigned) [Compound I-227] . Output DC50: 4

* * *

Molecular target: ERα protein (HiBiT-tagged) in ESR1_HiBiT KI MCF7 cells (Homo sapiens)
Sequence (P03372 1-595): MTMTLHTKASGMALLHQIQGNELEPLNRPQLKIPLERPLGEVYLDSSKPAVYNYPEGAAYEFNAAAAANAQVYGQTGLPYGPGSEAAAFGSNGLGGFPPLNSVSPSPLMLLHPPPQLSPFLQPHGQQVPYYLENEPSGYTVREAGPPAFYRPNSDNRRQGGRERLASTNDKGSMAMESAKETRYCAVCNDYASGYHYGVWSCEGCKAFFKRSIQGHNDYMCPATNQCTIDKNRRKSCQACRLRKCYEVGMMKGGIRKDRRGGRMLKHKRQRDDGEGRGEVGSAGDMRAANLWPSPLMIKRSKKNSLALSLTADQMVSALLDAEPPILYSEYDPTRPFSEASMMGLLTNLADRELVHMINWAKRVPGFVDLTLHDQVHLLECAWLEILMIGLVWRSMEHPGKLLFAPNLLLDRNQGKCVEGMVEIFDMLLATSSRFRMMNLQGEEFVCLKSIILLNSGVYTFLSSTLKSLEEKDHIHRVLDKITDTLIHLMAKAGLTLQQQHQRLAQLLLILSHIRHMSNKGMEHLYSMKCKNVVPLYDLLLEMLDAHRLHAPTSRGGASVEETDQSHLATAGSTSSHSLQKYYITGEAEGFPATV
Test: Nano Glo HiBiT Lytic Degradation Assay
Assay type: cell-based
Conditions: 6 hours with compound, 14-point dose response 1:3, bell-shape curve fit, half-maximal effect of first Hill model, read-out: MCF7 ESR1 HiBiT - (DC50)
property.name: DC50 (nM)
Just the number in nM, nothing appended.

Input O=C1CCC(N2Cc3cc([C@H]4CCN(CC5CCN(c6ccc([C@@H]7c8ccc(O)cc8CC[C@@H]7c7ccccc7)cc6)CC5)C[C@@H]4O)ccc3C2=O)C(=O)N1 (single isomer, unassigned) . Output DC50: 3.91

Input CC1(C)CCC([C@H]2CCc3cc(O)ccc3[C@H]2c2ccc(N3CCC(CN4CCN(c5ccc6c(c5)CN([C@H]5CCC(=O)NC5=O)C6=O)CC4)CC3)cc2)CC1 (single isomer, unassigned) . Output DC50: 45.8

Input O=C1CC[C@H](N2Cc3cc(N4CCN(CC5CCN(c6ccc([C@H]7c8ccc(O)cc8CC[C@H]7c7cccc(F)c7)cc6)CC5)CC4)ccc3C2=O)C(=O)N1 (single isomer, unassigned) . Output DC50: 0.82

Input O=C1CCC(c2cccc(N3CCC4C3CCN4CC3CCN(c4ccc([C@@H]5c6ccc(O)cc6CC[C@@H]5c5ccccc5)cc4)CC3)c2)C(=O)N1 (stereo in doubt) . Output DC50: 3300

Input O=C1CCC(N2Cc3cc(N4CCN(CC5CCN(c6ccc([C@H]7c8ccc(O)cc8CC[C@H]7c7cccc8c7CC8)cc6)CC5)CC4)ccc3C2=O)C(=O)N1 (single isomer, unassigned) . Output DC50: 8

Input Cn1c(=O)n([C@H]2CCC(=O)NC2=O)c2ccc(N3CCN(CC4CCN(c5ccc([C@@H]6c7ccc(O)cc7CO[C@@H]6c6ccccc6)cc5)CC4)CC3)cc21 (single isomer, unassigned) . Output DC50: 0.16

Where do the numbers come from? From patent US20250388565A1.
